- protocol-description: Chemical stability assessment (RP-HPLC normalized purity)
- Type: physicochemical
- setup-conditions: 1 mg/ml in 50 mM acetate buffer pH 4.0, 40° C.
parameter-measured: Normalized purity pH 4.0 after 14 days (%)
Write the value in % as a bare number.

Example results:
In [3]: df
Out[3]:
                                  substance  endpoint_value
0  H-HSQGTFTSDYSKYLDLARAEDFVKWLEST-OH [Compound 17]            89.9
1  H-HSQGTFTSDYSKYLDSARAEDFVKWLES-OH [Compound 13]            84.6
2  H-HSQGTFTSDLSKYLDSARAEDFVKWLEST-OH [Compound 11]            78.6
3  H-HSQGTFTSDYSKYLDEARAKDFVEWLEKT-OH [Compound 5]            91.8

So what does the record say about Normalized purity pH 4.0 after 14 days for H-HSQGTFTSDYSKYLESARAESFVKWLEST-OH [Compound 16] ?
89.1

So what does the record say about Normalized purity pH 4.0 after 14 days for H-HSQGTFTSDYSKYLDKARAEDFVKWLEST-OH [Compound 3] ?
85.0

So what does the record say about Normalized purity pH 4.0 after 14 days for H-HSQGTFTSDYSKYLDSARAEDFVAWLEST-OH [Compound 4] ?
80.5

So what does the record say about Normalized purity pH 4.0 after 14 days for H-HSQGTFTSDYSKYLDEARAEDFVKWLEST-OH [Compound 14] ?
89.5

So what does the record say about Normalized purity pH 4.0 after 14 days for H-HSQGTFTSDYSKYLDSARAEDFVKWLEET-OH [Compound 2] ?
83.5

###

Each item that follows carries a reported solubility.
- protocol-description: physchem
- setup-conditions: pH 7.5

So what does the record say about solubility for H-HSQGTFTSDYSKYLDLARAEDFVKWLEST-OH [Compound 17] ?
≥ 1000 µg/mL

So what does the record say about solubility for H-HSQGTFTSDYSKYLDEARAKDFVEWLEKT-OH [Compound 5] ?
≥ 1000 µg/mL

So what does the record say about solubility for H-HSQGTFTSDYSKYLDEARAEDFVKWLEST-OH [Compound 14] ?
≥ 1000 µg/mL

###

Each item that follows carries a reported Normalized purity pH 7.5 after 14 days.
- protocol-description: Chemical stability assessment (RP-HPLC normalized purity)
- Type: physicochemical
- setup-conditions: 1 mg/ml in 50 mM phosphate buffer pH 7.5, 40° C.
Write the value in % as a bare number.

Example results:
                                  substance                      parameter_measured  endpoint_value
0  H-HSQGTFTSDYSKYLDSARAEDFVKWLES-OH [Compound 13]  Normalized purity pH 7.5 after 14 days            88.8
1  H-HSQGTFTSDLSKYLDSARAEDFVKWLEST-OH [Compound 11]  Normalized purity pH 7.5 after 14 days            89.9
2  H-HSQGTFTSDYSKYLDEARAEDFVKWLEST-OH [Compound 14]  Normalized purity pH 7.5 after 14 days            92.4
3  H-HSQGTFTSDYSKYLDLARAEDFVKWLEST-OH [Compound 17]  Normalized purity pH 7.5 after 14 days            88.3
4  H-HSQGTFTSDYSKYLDSARAEDFVKWLEET-OH [Compound 2]  Normalized purity pH 7.5 after 14 days            86.2
5  H-HSQGTFTSDYSKYLDSARAEDFVAWLEST-OH [Compound 4]  Normalized purity pH 7.5 after 14 days            84.6
6  H-HSQGTFTSDYSKYLDKARAEDFVKWLEST-OH [Compound 3]  Normalized purity pH 7.5 after 14 days            86.5

Okay, next one:
So what does the record say about Normalized purity pH 7.5 after 14 days for H-HSQGTFTSDYSKYLDEARAKDFVEWLEKT-OH [Compound 5] ?
89.6
